Reference for the values: PubChem BioAssay (NCI)

System: BT-549 breast
test description: NCI tumour cell line growth inhibition, 48 h

{"columns": ["compound", "TGI"],
 "data": [
  ["COc1ccc(C2CC(=O)Oc3ccccc3O2)cc1 (stereo not drawn)", "> 100 µM"],
  ["O=C1C=CN(C2OC(CO)C(O)C2O)C(=O)C1 (stereo not drawn)", "> 2500 µM"],
  ["C/C(=N\\NC(=O)/C(C#N)=C\\c1ccc(N(CCC#N)CCC#N)cc1)c1ccccc1", "> 10 µM"],
  ["C[C@]12CC(c3ccccc3O1)C(C#N)C(=O)N2 (stereo partly drawn)", "> 100 µM"],
  ["COC1C=C(NCC2(CO)CCC2)NC(N)=N1 (stereo not drawn)", "> 100 µM"],
  ["COc1cc(C2CC(c3ccc4c(c3)OCO4)=NN2C(C)=O)cc(OC)c1OC (stereo not drawn)", "> 100 µM"],
  ["CC1CCCN(CC(O)CN2CCCc3ccccc32)C1 (stereo not drawn)", "> 100 µM"],
  ["Nc1nc(N)nc(-c2cnccn2)n1", "> 100 µM"],
  ["Cc1cn(CC2=NCC(C)(C)CN2)c(=O)[nH]c1=O", "> 100 µM"],
  ["CC(=N/NC(=S)Nc1c(C)n(C)n(-c2ccccc2)c1=O)/C(C)=N\\NC(=S)Nc1c(C)n(C)n(-c2ccccc2)c1=O", "> 100 µM"],
  ["O=C1Nc2ccccc2[C@]12C[C@H]2c1ccccn1", "> 100 µM"],
  ["O=[N+]([O-])c1cc(Cl)cc2c1nc(NCCO)c1ccccc12", "> 82.1 µM"],
  ["COc1ccc2nc3cc([N+](=O)[O-])ccc3c(NNc3ccc(Cl)cc3)c2c1", "> 92.1 µM"],
  ["CC1(C)[C@@H]2C[C@H]1C(Cc1ccc(C[C@H]3c4cc(-c5ccccn5)ncc4[C@H]4C[C@@H]3C4(C)C)cc1)c1cc(-c3ccccn3)ncc12 (stereo partly drawn)", "> 100 µM"],
  ["C/C(=N\\NS(=O)(=O)c1ccc(C)cc1)C(CN(C)C)C(c1ccccc1)c1c(O)c2ccccc2oc1=O (stereo not drawn)", "> 100 µM"],
  ["NC(=O)C(=CN1C(=O)CC(=O)NC1=S)C(N)=O", "> 100 µM"],
  ["Nc1nc(Cl)cc(NCC2(CO)CCC2)n1", "> 100 µM"],
  ["Cn1cc2c(=O)n3ncn(-c4ccc(Br)cc4)c3nc2n1", "> 100 µM"]
]}

====

Catalogue of compounds with associated TGI
Tested on: RXF 393 renal
test description: NCI tumour cell line growth inhibition, 48 h
outcome measure: TGI

{"columns": ["compound", "tgt", "outcome measure", "result"],
 "data": [
  ["Cc1cc(S(=O)(=O)Nc2nc(N)nc(N3CCOCC3)n2)c(SCC(=O)O)cc1Cl", "RXF 393 renal", "TGI", "> 10 µM"],
  ["C[C@@H]1CC[C@H]2C(COC/C=C/COCC3=C(C(F)(F)F)O[C@@H]4O[C@@]5(C)CC[C@H]6[C@H](C)CC[C@@H]3[C@@]46OO5)=C(C(F)(F)F)O[C@@H]3O[C@@]4(C)CC[C@@H]1[C@]32OO4", "RXF 393 renal", "TGI", "> 20.7 µM"],
  ["C/C(=N\\NC(=O)/C(C#N)=C\\c1ccc(N(CCC#N)CCC#N)cc1)c1ccccc1", "RXF 393 renal", "TGI", "> 10 µM"],
  ["CC1=CCC[C@@](C)(O)[C@@H]2C[C@H]3C(CSc4ccccc4)C(=O)O[C@H]3[C@@H](O2)[C@H](C)CCC1 (some centres undefined)", "RXF 393 renal", "TGI", "30.4 µM"]
]}
